- Assay Target: Mitogen-activated protein kinase 8 (Homo sapiens, UniProt P45983);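 also: value comes from one member of a kinome-wide kinase profiling panel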
- Sequence (P45983 whole entry): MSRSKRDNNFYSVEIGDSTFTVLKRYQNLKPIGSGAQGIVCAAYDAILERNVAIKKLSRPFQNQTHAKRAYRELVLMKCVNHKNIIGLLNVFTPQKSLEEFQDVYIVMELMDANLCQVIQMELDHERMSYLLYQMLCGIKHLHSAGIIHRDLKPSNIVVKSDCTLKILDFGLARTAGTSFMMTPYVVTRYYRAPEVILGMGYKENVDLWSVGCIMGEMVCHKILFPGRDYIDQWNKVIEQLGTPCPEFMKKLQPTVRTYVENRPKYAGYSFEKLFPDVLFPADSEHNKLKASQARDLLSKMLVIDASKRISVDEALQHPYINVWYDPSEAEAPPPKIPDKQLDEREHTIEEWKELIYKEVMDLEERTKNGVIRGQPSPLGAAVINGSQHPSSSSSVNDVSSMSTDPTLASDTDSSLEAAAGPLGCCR
- Format: functional
Active and inactive are the calls of the source.
Outcome codes: 1.0 for active, 0.0 for inactive

INSERT INTO results (compound, qualitative_label) VALUES
  ('Oc1ccc(-c2nc(-c3ccncc3)c(-c3ccc(F)cc3)[nH]2)cc1', 1.0),
  ('CCC1C(=O)N(C)c2cnc(Nc3ccc(C(=O)NC4CCN(C)CC4)cc3OC)nc2N1C1CCCC1 (centres undefined)', 0.0),
  ('COc1cccc(C(C)NC(=O)c2sc(-c3ccncc3)nc2C)c1 (centres undefined)', 0.0),
  ('CCCCC(=O)Nc1cc(-c2c[nH]c3ncccc23)cc(Cl)n1', 0.0);

* * *

- Assay Target: Peroxisome proliferator-activated receptor gamma/Nuclear receptor coactivator 1 (Homo sapiens, UniProt P37231);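 also: agonist potency as compounds enhance coactivator SRC-1 recruitment to PPARgamma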
- Sequence (P37231 whole entry): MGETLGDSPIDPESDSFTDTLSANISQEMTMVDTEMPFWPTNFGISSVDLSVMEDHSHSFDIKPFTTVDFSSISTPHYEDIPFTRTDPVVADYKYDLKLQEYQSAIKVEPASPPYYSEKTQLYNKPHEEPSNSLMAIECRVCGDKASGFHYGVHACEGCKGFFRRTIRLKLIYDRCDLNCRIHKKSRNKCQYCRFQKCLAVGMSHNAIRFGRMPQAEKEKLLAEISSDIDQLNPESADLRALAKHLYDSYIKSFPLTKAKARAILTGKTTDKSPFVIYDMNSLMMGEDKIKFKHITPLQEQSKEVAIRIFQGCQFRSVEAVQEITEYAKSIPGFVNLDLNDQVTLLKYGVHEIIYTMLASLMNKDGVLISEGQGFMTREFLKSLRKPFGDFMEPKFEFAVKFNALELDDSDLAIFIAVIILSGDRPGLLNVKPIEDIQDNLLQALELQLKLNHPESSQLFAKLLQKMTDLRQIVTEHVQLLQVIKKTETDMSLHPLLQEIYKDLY
- Sequence (Q15788 whole entry, further chain): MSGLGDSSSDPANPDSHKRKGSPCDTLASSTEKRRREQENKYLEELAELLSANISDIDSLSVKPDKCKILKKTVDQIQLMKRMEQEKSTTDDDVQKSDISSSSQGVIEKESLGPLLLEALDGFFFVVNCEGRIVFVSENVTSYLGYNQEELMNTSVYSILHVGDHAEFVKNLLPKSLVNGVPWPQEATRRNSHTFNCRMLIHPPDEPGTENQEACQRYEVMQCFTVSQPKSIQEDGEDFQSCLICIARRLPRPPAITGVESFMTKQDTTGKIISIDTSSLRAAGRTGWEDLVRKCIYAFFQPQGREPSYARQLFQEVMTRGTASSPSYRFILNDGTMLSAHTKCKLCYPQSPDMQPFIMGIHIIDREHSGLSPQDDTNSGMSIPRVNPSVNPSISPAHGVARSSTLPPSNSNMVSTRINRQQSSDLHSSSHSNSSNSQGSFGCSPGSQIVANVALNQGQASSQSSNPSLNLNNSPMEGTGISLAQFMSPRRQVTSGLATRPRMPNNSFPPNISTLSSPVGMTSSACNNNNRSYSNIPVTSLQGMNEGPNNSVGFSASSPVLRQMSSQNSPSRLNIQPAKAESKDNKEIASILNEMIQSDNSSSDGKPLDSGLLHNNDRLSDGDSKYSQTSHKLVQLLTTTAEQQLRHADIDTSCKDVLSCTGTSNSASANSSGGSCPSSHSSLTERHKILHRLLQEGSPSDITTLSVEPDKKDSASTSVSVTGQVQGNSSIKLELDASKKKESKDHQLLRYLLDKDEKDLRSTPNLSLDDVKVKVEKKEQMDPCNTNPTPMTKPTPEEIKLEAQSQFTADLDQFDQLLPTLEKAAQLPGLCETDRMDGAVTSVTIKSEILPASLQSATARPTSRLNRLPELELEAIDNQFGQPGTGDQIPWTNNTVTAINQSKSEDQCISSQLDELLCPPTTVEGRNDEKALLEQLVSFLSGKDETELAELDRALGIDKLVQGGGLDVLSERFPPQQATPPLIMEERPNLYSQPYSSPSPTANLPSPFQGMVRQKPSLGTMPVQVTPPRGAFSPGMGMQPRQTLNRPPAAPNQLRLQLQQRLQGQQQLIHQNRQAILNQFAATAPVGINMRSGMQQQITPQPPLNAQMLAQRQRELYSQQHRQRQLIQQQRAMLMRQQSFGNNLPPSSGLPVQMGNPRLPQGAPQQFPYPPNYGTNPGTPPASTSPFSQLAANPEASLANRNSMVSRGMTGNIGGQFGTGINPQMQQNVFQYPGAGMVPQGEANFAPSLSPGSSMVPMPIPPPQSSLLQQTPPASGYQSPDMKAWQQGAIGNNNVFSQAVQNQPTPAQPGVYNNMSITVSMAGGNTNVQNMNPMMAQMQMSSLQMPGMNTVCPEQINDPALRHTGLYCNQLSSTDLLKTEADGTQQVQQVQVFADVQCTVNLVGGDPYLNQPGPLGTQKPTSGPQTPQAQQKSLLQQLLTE
- Assay type: functional
Readout Type: EC50

INSERT INTO results (sample_smiles, experimental_value) VALUES
  ('CCn1cc(/C=C/C(=O)Nc2ccn(Cc3c(F)c(F)c(F)c(F)c3F)n2)cn1', '> 79.4 µM (not active)'),
  ('COc1ccc(OC)c(NC(=O)CSc2nnc(N)s2)c1', '> 79.4 µM (not active)'),
  ('COc1ccc(-c2[nH]c3ccccc3c2SCCNC(=O)c2ccccc2)cc1', '39.5 µM (not active)'),
  ('CCc1ccc2c(c1)cc(CN(C(=S)Nc1ccc(Cl)cc1)C1CC1)c1nnnn12', '11.5 µM (not active)');

* * *

Property: IC50; scope: individual compounds
- Assay Target: Aminopeptidase N (Plasmodium falciparum FcB1/Columbia)
- Protocol: malaria alanyl aminopeptidase activity blockers – biochemical, fluorogenic H-Leu-NHMec substrate, 1536-well (AID 1445)
- Design: species or system Plasmodium falciparum 3D7, 3D7
The source made the active and inactive calls.
Readout Type: IC50

INSERT INTO assay_data (compound, readout_type, experimental_value) VALUES
  ('O=C(NN1C(=O)c2ccccc2NC1c1ccccn1)c1ccccc1 (stereo not given)', 'IC50', '81.1 µM (active)'),
  ('CCN1C(=O)/C(=C/NNC(=O)c2ccncc2)C(=O)NC1=S', 'IC50', '85.1 µM (active)'),
  ('CC(=O)Nc1ccc2nc(-c3ccccn3)[nH]c2c1', 'IC50', '94 µM (active)'),
  ('O=C(NNC(=S)NCCc1ccccc1)c1ccc(Br)s1', 'IC50', '9.19 µM (active)'),
  ('CCNS(=O)(=O)c1ccc(CCC(=O)NCc2ccccc2)cc1', 'IC50', '60.1 µM (active)');

* * *

- Assay Target: Trace amine-associated receptor 1 (Homo sapiens);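 also: inhibition of calcium response to PEA at EC80 in Galpha16 coupled cells measured by Fluo-8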
- Sequence (Q96RJ0 whole entry): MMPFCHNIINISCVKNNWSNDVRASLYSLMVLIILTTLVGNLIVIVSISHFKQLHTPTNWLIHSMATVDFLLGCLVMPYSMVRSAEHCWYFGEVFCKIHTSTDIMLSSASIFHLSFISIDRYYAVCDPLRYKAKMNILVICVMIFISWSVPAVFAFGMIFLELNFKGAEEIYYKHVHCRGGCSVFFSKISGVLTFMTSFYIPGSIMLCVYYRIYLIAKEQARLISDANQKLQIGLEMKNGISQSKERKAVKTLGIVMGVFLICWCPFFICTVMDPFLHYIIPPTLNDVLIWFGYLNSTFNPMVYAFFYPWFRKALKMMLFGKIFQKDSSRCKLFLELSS
- Protocol: Counterscreen for agonists of the human trace amine associated receptor 1 (hTAAR1): Fluorescence-based cell-based high throughput dose response assay to identify hTAAR1 agonist that also desensitize TAAR1 receptor response.
- Assay type: functional
Calls of active or inactive are those of the source.
Labels: active, inactive

INSERT INTO measurements (compound, qualitative_label) VALUES
  ('COc1ccccc1CCn1cnc(-c2ccc(Br)cc2)c1CC(C)C', 'active'),
  ('CCOC(=O)C(NCCc1ccccc1F)(NC(C)=O)C(F)(F)F (centres undefined)', 'inactive'),
  ('C[C@H](NC(=O)c1ccccc1)C(=O)OCC(=O)c1c[nH]c2ccccc12', 'active'),
  ('Cc1ccc(SCC(=O)Nc2ccc(N3CCN(C)CC3)c(F)c2)c(C)c1', 'active');

* * *

- Assay Target: Large T antigen (Simian virus 40);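 also: Confirmatory-stage PubChem screen for compounds that inhibit SV40 T antigen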
- Sequence (P03070 whole entry): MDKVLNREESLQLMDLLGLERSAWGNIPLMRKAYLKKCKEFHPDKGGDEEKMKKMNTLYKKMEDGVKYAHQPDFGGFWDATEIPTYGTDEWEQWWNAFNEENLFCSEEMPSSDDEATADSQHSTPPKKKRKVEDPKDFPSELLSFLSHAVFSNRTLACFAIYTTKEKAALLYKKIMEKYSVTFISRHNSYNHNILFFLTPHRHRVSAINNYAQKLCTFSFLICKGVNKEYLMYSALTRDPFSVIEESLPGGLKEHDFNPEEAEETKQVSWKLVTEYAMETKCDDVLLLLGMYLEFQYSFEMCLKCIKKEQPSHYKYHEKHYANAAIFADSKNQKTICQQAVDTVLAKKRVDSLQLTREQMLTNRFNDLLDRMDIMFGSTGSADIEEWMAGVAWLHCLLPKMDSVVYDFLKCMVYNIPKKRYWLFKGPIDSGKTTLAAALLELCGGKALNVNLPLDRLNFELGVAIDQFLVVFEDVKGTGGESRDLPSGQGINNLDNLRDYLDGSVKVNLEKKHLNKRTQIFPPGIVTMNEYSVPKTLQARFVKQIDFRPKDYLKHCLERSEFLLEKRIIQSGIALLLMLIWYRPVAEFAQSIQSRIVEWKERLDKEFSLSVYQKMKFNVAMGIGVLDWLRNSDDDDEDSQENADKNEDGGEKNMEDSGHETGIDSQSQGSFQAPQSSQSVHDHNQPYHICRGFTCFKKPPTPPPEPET
- Format: functional, Betapolyomavirus macacae
The source made the active and inactive calls.
In this section we review reported IC50 values for a set of molecules.
Readout Type: IC50

INSERT INTO results (molecule, experimental_value) VALUES
  ('O=c1cc2oc3cc(O)c(O)cc3c(-c3ccccc3[N+](=O)[O-])c-2cc1O', '5.91 µM (active)'),
  ('Oc1ccc(Nc2nc(Cl)nc(NCc3ccco3)n2)cc1', '10.7 µM (active)'),
  ('Cc1cc(O)nc(N/N=C/c2c[nH]c3ccccc23)n1', '24.6 µM (active)'),
  ('Oc1ccc(-c2nc(-c3ccncc3)c(-c3ccc(F)cc3)[nH]2)cc1 [SB-202190]', '4.87 µM (active)'),
  ('COCCn1nnnc1C(c1cc2cc(OC)c(OC)cc2[nH]c1=O)N1CCN(c2ccc(O)cc2)CC1 (stereo not given)', '6.67 µM (active)');

* * *

- Assay Target: UniProt:Q13627
- Format: functional
Calls of active or inactive are those of the source.
Outcomes: t (active), f (inactive)

INSERT INTO measurements (compound, qualitative_label) VALUES
  ('COc1cccc(C(C)NC(=O)c2sc(-c3ccncc3)nc2C)c1 (centres undefined)', 'f'),
  ('CCCCC(=O)Nc1cc(-c2c[nH]c3ncccc23)cc(Cl)n1', 't'),
  ('O=C(Nc1ccc(CO)cc1)c1cnn2c(-c3ccccc3)ccnc12', 't'),
  ('Oc1ccc(-c2nc(-c3ccncc3)c(-c3ccc(F)cc3)[nH]2)cc1', 'f');

* * *

Below is a list of entries, each paired with its recorded AC50 value.
- Assay Target: FAD-linked sulfhydryl oxidase ALR (Homo sapiens)
- Sequence (P55789 whole entry): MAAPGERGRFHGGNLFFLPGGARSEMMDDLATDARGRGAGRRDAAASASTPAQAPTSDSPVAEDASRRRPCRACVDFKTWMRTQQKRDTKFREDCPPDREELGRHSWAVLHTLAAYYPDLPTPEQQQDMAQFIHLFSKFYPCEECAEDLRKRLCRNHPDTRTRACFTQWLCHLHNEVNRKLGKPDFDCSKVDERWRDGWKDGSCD
- Protocol: ALR-catalysed DTT oxidation blockers – biochemical, H2O2 detection, luminescence, cherry-pick, dose response (AID 493248)
Calls of active or inactive are those of the source.
Readout Type: AC50

INSERT INTO assay_data (compound, readout_type, experimental_value) VALUES
  ('Clc1c(CSc2nc3ccccc3o2)nc2ccccn12', 'AC50', '7.37 µM (active)'),
  ('c1ccc(CN2C3=NCCN3c3ccccc32)cc1', 'AC50', '40.9 µM (active)'),
  ('CCCCCC(=O)N/N=C/c1cc(Br)c(O)c(OC)c1', 'AC50', '0.098 µM (active)'),
  ('Nc1scc(-c2ccncc2)c1Cl', 'AC50', '1.73 µM (active)'),
  ('COc1ccc(N2CCN(C(=O)Cc3ccc(OC)c(OC)c3)CC2)cc1', 'AC50', '7.7 µM (active)'),
  ('COc1ccccc1C(=O)Nc1ccc2c(c1)nc1n2CCSC1', 'AC50', '0.076 µM (active)'),
  ('COCc1cc(O)n2ncc(-c3ccsc3)c2n1', 'AC50', '3.5 µM (active)'),
  ('Nc1ncc(Br)cc1S(=O)(=O)NCCC(=O)N1CCN(c2ccccc2)CC1', 'AC50', '1.56 µM (active)'),
  ('CN(C)c1ccc(C(c2nnnn2C(C)(C)C)N2CCN(C(=O)c3ccco3)CC2)cc1 (stereo unspecified)', 'AC50', '3.83 µM (active)'),
  ('Nc1ccc2[nH]c(C3CCCCC3)nc2c1', 'AC50', '1.13 µM (active)'),
  ('O=C(CNCC1CCCCC1)Nc1ccc(N2CCCCC2)cc1', 'AC50', '13.4 µM (active)');

* * *

- Assay Target: Bcl-2-related protein A1 (Mus musculus, UniProt Q07440)
- Sequence (Q07440 whole entry): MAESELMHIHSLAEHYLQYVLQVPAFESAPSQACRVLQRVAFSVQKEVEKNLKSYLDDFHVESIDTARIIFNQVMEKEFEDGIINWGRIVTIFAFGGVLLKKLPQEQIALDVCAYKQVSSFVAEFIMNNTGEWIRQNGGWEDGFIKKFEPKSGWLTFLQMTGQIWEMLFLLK
- Protocol: small-molecule antagonists of Bfl-1/BH3 interaction – biochemical, TR-FRET, mouse Bfl-1, confirmation (AID 621);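 also: TR-FRET binding of GST-Bfl-1 to FITC-labelled Bid peptide via terbium antibody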
Activity calls are given as the source filed them.
Readout Type: IC50

INSERT INTO assay_data (sample_smiles, readout_type, experimental_value) VALUES
  ('Nc1ccc(N2CCCCC2)cc1N1CCCCC1', 'IC50', '> 100 µM (not active)'),
  ('CN(C)C1=C(Cl)C(=O)N(c2cccc([N+](=O)[O-])c2)C1=O', 'IC50', '> 100 µM (not active)'),
  ('CCN1CCN(C2=C(Cl)C(=O)N(c3ccc(Cl)c(Cl)c3)C2=O)CC1', 'IC50', '0.97 µM (active)'),
  ('Cc1ccc(-n2nnc(-c3cccnc3Cl)n2)cc1', 'IC50', '> 100 µM (not active)');

* * *

Below are compounds with their AC50 as measured on Cytochrome P450 2D6 (Homo sapiens, UniProt P10635).
Sequence (P10635 whole entry): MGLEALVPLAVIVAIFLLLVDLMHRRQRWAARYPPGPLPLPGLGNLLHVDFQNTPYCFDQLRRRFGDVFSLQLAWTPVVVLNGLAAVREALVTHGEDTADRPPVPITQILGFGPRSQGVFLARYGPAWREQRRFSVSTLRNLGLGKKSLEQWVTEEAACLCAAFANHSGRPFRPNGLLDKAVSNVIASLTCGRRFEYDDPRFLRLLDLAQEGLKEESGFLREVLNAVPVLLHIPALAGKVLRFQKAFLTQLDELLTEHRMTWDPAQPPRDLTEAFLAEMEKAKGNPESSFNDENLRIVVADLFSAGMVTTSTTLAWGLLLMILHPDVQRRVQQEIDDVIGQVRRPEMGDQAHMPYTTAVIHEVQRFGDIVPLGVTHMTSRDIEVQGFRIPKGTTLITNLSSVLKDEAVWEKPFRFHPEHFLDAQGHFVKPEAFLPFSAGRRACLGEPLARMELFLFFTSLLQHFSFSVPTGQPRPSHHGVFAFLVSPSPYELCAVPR
Readout Type: AC50

INSERT INTO assay_data (compound, assay_target, readout_type, experimental_value) VALUES
  ('CCCn1nc2cc(C(=O)NC3CCCc4ccccc43)ccc2c1OCC (stereo not given)', 'Cytochrome P450 2D6 (Homo sapiens, UniProt P10635)', 'AC50', '25.1 µM (inconclusive)'),
  ('O=c1cnc2cnc(N3CCNCC3)nc2n1Cc1cccs1', 'Cytochrome P450 2D6 (Homo sapiens, UniProt P10635)', 'AC50', '20 µM (inconclusive)'),
  ('CC[C@]1(c2cccc(O)c2)CCCCN(C)C1', 'Cytochrome P450 2D6 (Homo sapiens, UniProt P10635)', 'AC50', '10 µM (inconclusive)'),
  ('c1ccc2sc(SCSc3nc4ccccc4s3)nc2c1', 'Cytochrome P450 2D6 (Homo sapiens, UniProt P10635)', 'AC50', '2.51 µM (inconclusive)'),
  ('COc1ccc(/C=C2\SC(=O)N(CCNC(=O)C3CC(=O)N(c4ccccc4)C3)C2=O)cc1 (stereo not given)', 'Cytochrome P450 2D6 (Homo sapiens, UniProt P10635)', 'AC50', '20 µM (inconclusive)');
